biological target: Replicase polyprotein 1ab (Severe acute respiratory syndrome coronavirus 2); experiment: Binding affinity to SARS-CoV-2 3CL protease assessed as monophasic dissociation rate by measuring half life by jump dilution assay
Give measured T1/2 for each item. Keep answers brief.
Give a bare numeral; the unit min is implied.

Query block: Could you share which T1/2 value was measured for CC(C)C[C@H](NC(=O)[C@H](Cc1ccc(F)cc1)NC(=O)OCc1ccccc1)C(=O)NC(CC1CCCO1)C(=O)C(=O)NC(C)C (mixture of isomers) ?
Result block: 12

Query block: What do you get for CC(C)C[C@H](NC(=O)[C@H](Cc1ccc(F)cc1)NC(=O)OCc1ccccc1)C(=O)NC(/C=C1\CCOC1=O)CC1CCCO1 (mixture of isomers) ?
Result block: 18

Query block: // repeat for CC(C)C[C@H](NC(=O)[C@H](Cc1ccc(F)cc1)NC(=O)OCc1ccccc1)C(=O)NC(C=O)Cc1ccccn1 (mixture of isomers) and report
Result block: 18

Query block: // query: `CC(C)C[C@H](NC(=O)[C@H](Cc1ccc(F)cc1)NC(=O)OCc1ccccc1)C(=O)N[C@@H](C[C@@H]1CCNC1=O)C(=O)C(=O)NC(C)C`
Result block: 18
